B1: STX11 (parent)
chain: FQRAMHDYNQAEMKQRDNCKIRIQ

Variants of: B1
Assay: protein stability index of a GFP-peptide fusion (GPS, HEK-293T) (PSI 1-6); higher = more stable;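 further: lentivirally expressed fusions sorted by FACS into six bins by GFP to DsRed ratio, PSI derived from sequencing read proportions per bin multiplied by bin number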
Conditions: c terminus: a fixed tail appended
outcome-measure: protein stability index

| variant-designation | numeric-readout |
| --- | --- |
| Q24H | 2.74 |
| I23M | 2.99 |
| N9R | 4.08 |
| F1S | 4.1 |
| Q10E | 2.74 |
| M13K | 1.98 |
| M13T | 2.79 |
| Q2D | 4.2 |
| Q15S | 2.71 |
| A11M | 2.02 |
| D7P | 2.23 |
| F1K | 3.98 |
| Q2Y | 2.95 |
| A4E | 3.15 |
| A11L | 3.27 |
| N9E | 2.94 |
| M5G | 2.9 |
| I21Q | 3.04 |
| C19L | 2.54 |
| A11I | 1.68 |
| K20T | 2.47 |
| Q2T | 2.63 |
